Hey, just so you know, these numbers are from patent US4207343A.

Molecular target: uptake of serotonin in cortical synaptosomes (Rattus norvegicus, UniProt P31652)
Sequence (P31652 whole entry): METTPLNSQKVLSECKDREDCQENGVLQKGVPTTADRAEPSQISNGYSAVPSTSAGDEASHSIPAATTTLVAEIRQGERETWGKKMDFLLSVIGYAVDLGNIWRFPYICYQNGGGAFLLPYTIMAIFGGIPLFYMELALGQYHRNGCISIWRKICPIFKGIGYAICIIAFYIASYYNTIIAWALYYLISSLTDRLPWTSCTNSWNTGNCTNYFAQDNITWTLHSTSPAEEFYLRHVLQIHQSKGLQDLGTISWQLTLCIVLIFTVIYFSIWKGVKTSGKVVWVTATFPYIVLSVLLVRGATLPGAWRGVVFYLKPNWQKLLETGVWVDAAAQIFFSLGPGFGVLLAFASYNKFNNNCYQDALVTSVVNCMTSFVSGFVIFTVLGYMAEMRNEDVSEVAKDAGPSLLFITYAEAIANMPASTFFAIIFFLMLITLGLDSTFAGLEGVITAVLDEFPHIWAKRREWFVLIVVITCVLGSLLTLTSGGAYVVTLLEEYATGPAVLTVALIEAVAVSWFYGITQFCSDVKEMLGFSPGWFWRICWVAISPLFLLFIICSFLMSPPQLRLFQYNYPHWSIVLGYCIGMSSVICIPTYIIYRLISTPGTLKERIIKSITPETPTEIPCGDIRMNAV
Assay: Inhibition of serotonin uptake in cortical synaptosomes, kinetics
Conditions: cortical synaptosomes; compound at 0.01, 0.05 and 0.1 μM; competitive; read-out: inhibitor constant KI, serotonin uptake
QUANTITY NAME: pKi
The meaning of pKi here: minus log10 of the concentration in molar units.

Any idea what pKi was measured for Cc1ccc(OCCC(c2ccccc2)N(C)C)cc1 (stereo not shown) ?
7.22

###

Biological target: dopamine uptake from synaptosomes isolated from corpus striatum (Rattus norvegicus, UniProt P23977)
Sequence (P23977 whole entry): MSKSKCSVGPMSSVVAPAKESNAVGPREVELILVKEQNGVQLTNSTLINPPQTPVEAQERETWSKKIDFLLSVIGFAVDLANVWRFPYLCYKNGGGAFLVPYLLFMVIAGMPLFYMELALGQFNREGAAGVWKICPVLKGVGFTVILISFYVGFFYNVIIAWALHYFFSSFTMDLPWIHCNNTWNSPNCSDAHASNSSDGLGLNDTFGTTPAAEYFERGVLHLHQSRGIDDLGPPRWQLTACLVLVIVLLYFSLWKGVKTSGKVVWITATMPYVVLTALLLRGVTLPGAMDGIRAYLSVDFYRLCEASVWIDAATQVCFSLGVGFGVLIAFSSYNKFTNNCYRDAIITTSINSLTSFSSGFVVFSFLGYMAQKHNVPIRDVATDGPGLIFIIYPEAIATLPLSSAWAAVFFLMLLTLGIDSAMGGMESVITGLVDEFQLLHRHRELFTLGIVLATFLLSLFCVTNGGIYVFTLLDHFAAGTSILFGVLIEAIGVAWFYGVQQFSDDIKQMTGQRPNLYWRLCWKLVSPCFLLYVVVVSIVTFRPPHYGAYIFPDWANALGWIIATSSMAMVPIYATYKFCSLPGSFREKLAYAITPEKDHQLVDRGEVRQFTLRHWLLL
Assay: Inhibition of dopamine uptake in synaptosomes isolated from corpus striatum
QUANTITY NAME: pKi
The meaning of pKi here: minus log10 of the concentration in molar units.

Any idea what pKi was measured for Cc1ccc(OCCC(c2ccccc2)N(C)C)cc1 (stereo not shown) ?
5.60
